target: Tau-Synaptogyrin3 interaction (Homo sapiens, UniProt O43761+P10636); test: Cell-based split luciferase (NanoBit) protein complementary assay for Tau-Synaptogyrin3 interaction in stable cell line HEK293T-TK252-1E2; settings: HEK293T-TK252-1E2 cells, 48 hrs compound treatment, L/F value (luciferase activity/fluorescent intensity) compared to DMSO control
Sequence (P10636 1-441 isoform P10636-8): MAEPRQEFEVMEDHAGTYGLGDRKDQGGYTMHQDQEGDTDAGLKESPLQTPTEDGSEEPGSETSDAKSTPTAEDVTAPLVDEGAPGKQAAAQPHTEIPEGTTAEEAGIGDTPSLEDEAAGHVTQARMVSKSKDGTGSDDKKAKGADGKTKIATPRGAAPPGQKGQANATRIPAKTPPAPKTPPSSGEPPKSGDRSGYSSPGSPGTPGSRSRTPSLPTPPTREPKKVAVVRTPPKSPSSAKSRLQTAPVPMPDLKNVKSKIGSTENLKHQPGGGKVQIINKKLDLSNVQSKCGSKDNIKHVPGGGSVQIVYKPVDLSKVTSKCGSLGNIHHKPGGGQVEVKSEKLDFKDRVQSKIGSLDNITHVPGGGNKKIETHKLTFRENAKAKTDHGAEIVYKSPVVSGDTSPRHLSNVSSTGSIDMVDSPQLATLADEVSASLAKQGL
Sequence (O43761 whole entry): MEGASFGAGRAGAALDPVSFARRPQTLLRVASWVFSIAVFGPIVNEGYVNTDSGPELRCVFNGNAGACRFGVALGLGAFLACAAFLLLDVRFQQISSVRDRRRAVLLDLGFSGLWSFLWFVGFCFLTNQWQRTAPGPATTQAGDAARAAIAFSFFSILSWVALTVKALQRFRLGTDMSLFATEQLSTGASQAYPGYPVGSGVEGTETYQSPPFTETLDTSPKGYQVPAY
readoutName: IC50

Solved entries (count: 3):
>>> endpointresult("CCc1ccc(C(=O)N2CCc3[nH]c4ccc(-c5ccccc5)cc4c3C2)cc1 [Formula 16]")
"3 to 12 µM"
>>> endpointresult("Cc1ccc(C(=O)N2CCc3[nH]c4ccc(-c5ccc(C#N)cc5)cc4c3C2)cn1 [Formula 54]")
"3 to 12 µM"
>>> endpointresult("Cc1ccc(C(=O)N2CCc3[nH]c4ccc(-c5ccc(C)cc5)cc4c3C2)cc1 [Formula 37]")
"< 3 µM"

Pending compound:
Input line: Please report the recorded IC50 for Cc1ccc(-c2ccc3c(c2)c2c(n3C)CCN(C(=O)c3ccccc3)C2)cc1 [Formula 43] .
Output line: 3 to 12 µM

----------
Quick list: IC50 per entry.
target: Tau-Synaptogyrin3 interaction (Homo sapiens, UniProt O43761+P10636); assay: Cell-based split luciferase (NanoBit) protein complementary assay for Tau-Synaptogyrin3 interaction in stable cell line HEK293T-TK252-1E2; details: HEK293T-TK252-1E2 cells, 48 hrs compound treatment, L/F value (luciferase activity/fluorescent intensity) compared to DMSO control

Solved entries (count: 8):
>>> endpointresult("O=C(c1cccnc1)N1CCc2[nH]c3ccc(-c4cccnc4)cc3c2C1")
"12 to 25 µM"
>>> endpointresult("Cc1ccccc1-c1ccc2[nH]c3c(c2c1)CN(C(=O)c1ccccc1)CC3")
"3 to 12 µM"
>>> endpointresult("N#Cc1ccccc1-c1ccc2[nH]c3c(c2c1)CN(C(=O)c1ccccc1)CC3")
"3 to 12 µM"
>>> endpointresult("Cc1ccc(NC(=S)N2CCc3[nH]c4ccc(-c5ccc(C)cc5)cc4c3C2)cc1")
"3 to 12 µM"
>>> endpointresult("CCn1c2c(c3cc(-c4ccc(C)cc4)ccc31)CN(C(=O)c1ccccc1)CC2")
"3 to 12 µM"
>>> endpointresult("O=C(c1nccs1)N1CCc2[nH]c3ccc(-c4ccccc4)cc3c2C1")
"3 to 12 µM"
>>> endpointresult("Cc1ccc(-c2ccc3[nH]c4c(c3c2)CN(C(=O)c2ccc(C)nc2)CC4)cc1")
"< 3 µM"
>>> endpointresult("N#Cc1ccc(-c2ccc3[nH]c4c(c3c2)CN(C(=O)c2cccnc2)CC4)cc1")
"3 to 12 µM"

Input line: Please report the recorded IC50 for O=C(c1ccccc1)N1CCc2[nH]c3ccc(-c4ccc(C5CCCCC5)cc4)cc3c2C1 .
Output line: 12 to 25 µM

Input line: Please report the recorded IC50 for Cc1ccc(-c2ccc3[nH]c4c(c3c2)CN(C(=S)Nc2ccc(C#N)cc2)CC4)cc1 .
Output line: 12 to 25 µM

Input line: Please report the recorded IC50 for Cc1ccccc1-c1ccc2[nH]c3c(c2c1)CN(C(=O)c1ccncc1)CC3 .
Output line: 3 to 12 µM

Input line: Please report the recorded IC50 for COc1ccc(-c2ccc3[nH]c4c(c3c2)CN(C(=O)c2cccnc2)CC4)cc1 .
Output line: < 3 µM

Input line: Please report the recorded IC50 for O=C(c1cccnc1)N1CCc2[nH]c3ccc(Nc4ccc(Cl)cc4)cc3c2C1 .
Output line: < 3 µM

Input line: Please report the recorded IC50 for O=C(c1ccccc1)N1CCc2[nH]c3ccc(-c4ccc(F)cc4)cc3c2C1 .
Output line: < 3 µM

Input line: Please report the recorded IC50 for Cc1ccc(C(=O)N2CCc3[nH]c4ccc(-c5ccc(C6CCCCC6)cc5)cc4c3C2)cn1 .
Output line: 3 to 12 µM

Input line: Please report the recorded IC50 for Cc1cccc(C(=O)N2CCc3[nH]c4ccc(-c5ccccc5)cc4c3C2)c1 .
Output line: 3 to 12 µM

Input line: Please report the recorded IC50 for Cc1ccc(C(=O)N2CCc3[nH]c4ccc(-c5ccccc5)cc4c3C2)cn1 .
Output line: 3 to 12 µM

----------
Quick list: IC50 per entry.
biological target: Tau-Synaptogyrin3 interaction (Homo sapiens, UniProt O43761+P10636); assay: Cell-based split luciferase (NanoBit) protein complementary assay for Tau-Synaptogyrin3 interaction in stable cell line HEK293T-TK252-1E2; conditions: HEK293T-TK252-1E2 cells, 48 hrs compound treatment, L/F value (luciferase activity/fluorescent intensity) compared to DMSO control

Solved entries (count: 5):
>>> endpointresult("Cc1ccc(-c2ccc3[nH]c4c(c3c2)CN(C(=O)Nc2ccccc2)CC4)cc1")
"12 to 25 µM"
>>> endpointresult("Cc1ccccc1-c1ccc2[nH]c3c(c2c1)CN(C(=O)c1nccs1)CC3")
"3 to 12 µM"
>>> endpointresult("COc1ccc(-c2ccc3[nH]c4c(c3c2)CN(C(=O)c2ccccc2)CC4)cc1")
"3 to 12 µM"
>>> endpointresult("O=C(c1cnccn1)N1CCc2[nH]c3ccc(-c4ccccc4)cc3c2C1")
"3 to 12 µM"
>>> endpointresult("O=C(c1ccccc1)N1CCc2[nH]c3ccc(-c4ccccc4)cc3c2C1")
"3 to 12 µM"

Input line: Request body: readout IC50, system Tau-Synaptogyrin3 interaction (Homo sapiens, UniProt O43761+P10636), query Cc1ccc(-c2ccc3[nH]c4c(c3c2)CN(C(=O)c2ccccc2)CC4)cn1 . Return the value.
Output line: 3 to 12 µM

Input line: Request body: readout IC50, system Tau-Synaptogyrin3 interaction (Homo sapiens, UniProt O43761+P10636), query Cc1ccccc1-c1ccc2[nH]c3c(c2c1)CN(C(=O)c1cccc2c1ccn2C)CC3 . Return the value.
Output line: 3 to 12 µM

Input line: Request body: readout IC50, system Tau-Synaptogyrin3 interaction (Homo sapiens, UniProt O43761+P10636), query N#Cc1ccc(-c2ccc3[nH]c4c(c3c2)CN(C(=O)c2cccc(C#N)c2)CC4)cc1 . Return the value.
Output line: 12 to 25 µM

----------
target: Tau-Synaptogyrin3 interaction (Homo sapiens, UniProt O43761+P10636); test: Cell-based split luciferase (NanoBit) protein complementary assay for Tau-Synaptogyrin3 interaction in stable cell line HEK293T-TK252-1E2; settings: HEK293T-TK252-1E2 cells, 48 hrs compound treatment, L/F value (luciferase activity/fluorescent intensity) compared to DMSO control
Quick list: IC50 per entry.

>>> endpointresult("Cc1ccc(-c2ccc3[nH]c4c(c3c2)CN(C(=O)c2ccc(N(C)C)cc2)CC4)cc1")
"3 to 12 µM"

Input line: Request body: readout IC50, system Tau-Synaptogyrin3 interaction (Homo sapiens, UniProt O43761+P10636), query CCn1c2c(c3cc(-c4ccc(C)cc4)ccc31)CN(C(=O)c1cccnc1)CC2 . Return the value.
Output line: 3 to 12 µM

Input line: Request body: readout IC50, system Tau-Synaptogyrin3 interaction (Homo sapiens, UniProt O43761+P10636), query O=C(c1ccccc1)N1CCc2[nH]c3ccc(-c4ccc([N+](=O)[O-])cc4)cc3c2C1 . Return the value.
Output line: < 3 µM

Input line: Request body: readout IC50, system Tau-Synaptogyrin3 interaction (Homo sapiens, UniProt O43761+P10636), query Cc1cccc(-c2ccc3[nH]c4c(c3c2)CN(C(=O)c2ccccc2)CC4)c1 . Return the value.
Output line: < 3 µM

Input line: Request body: readout IC50, system Tau-Synaptogyrin3 interaction (Homo sapiens, UniProt O43761+P10636), query O=C(c1cccnc1)N1CCc2[nH]c3ccc(-c4ccccc4)cc3c2C1 . Return the value.
Output line: 3 to 12 µM

----------
biological target: Tau-Synaptogyrin3 interaction (Homo sapiens, UniProt O43761+P10636); test: Cell-based split luciferase (NanoBit) protein complementary assay for Tau-Synaptogyrin3 interaction in stable cell line HEK293T-TK252-1E2; conditions: HEK293T-TK252-1E2 cells, 48 hrs compound treatment, L/F value (luciferase activity/fluorescent intensity) compared to DMSO control
Quick list: IC50 per entry.

>>> endpointresult("Cc1cccc(C(=O)N2CCc3[nH]c4ccc(-c5ccc(C#N)cc5)cc4c3C2)c1 [Formula 53]")
"3 to 12 µM"

Input line: Please report the recorded IC50 for Cc1ccc(-c2ccc3c(c2)c2c(n3C)CCN(C(=O)c3cccnc3)C2)cc1 [Formula 44] .
Output line: < 3 µM

Input line: Please report the recorded IC50 for Cc1ccc(C(=O)N2CCc3[nH]c4ccc(-c5ccccc5C#N)cc4c3C2)cc1 [Formula 59] .
Output line: 3 to 12 µM

Input line: Please report the recorded IC50 for Cc1ccc(-c2ccc3[nH]c4c(c3c2)CN(C(=O)c2cccc(C)c2)CC4)cc1 [Formula 38] .
Output line: 12 to 25 µM

Input line: Please report the recorded IC50 for Cc1ccc(-c2ccc3[nH]c4c(c3c2)CN(C(=O)c2ccccc2)CC4)cc1 [Formula 30] .
Output line: < 3 µM

Input line: Please report the recorded IC50 for O=C(c1cccnc1)N1CCc2[nH]c3ccc(-c4ccc(F)cc4)cc3c2C1 [Formula 65] .
Output line: < 3 µM

Input line: Please report the recorded IC50 for COc1cccc(C(=O)N2CCc3[nH]c4ccc(-c5ccccc5)cc4c3C2)c1 [Formula 18] .
Output line: 3 to 12 µM

Input line: Please report the recorded IC50 for O=C(c1ccccc1)N1CCc2[nH]c3ccc(Nc4ccc(Cl)cc4)cc3c2C1 [Formula 33] .
Output line: 3 to 12 µM

Input line: Please report the recorded IC50 for O=C(c1ccncc1)N1CCc2[nH]c3ccc(-c4ccccc4)cc3c2C1 [Formula 3] .
Output line: 3 to 12 µM

Input line: Please report the recorded IC50 for O=C(c1ccc(C(F)(F)F)cc1)N1CCc2[nH]c3ccc(-c4ccccc4)cc3c2C1 [Formula 12] .
Output line: 12 to 25 µM
